System: HepG2
Experiment: cytotoxicity call (relative viability < 0.9)
Conditions: 10 µM
In all, about 39,000 compounds went through this assay and about 3,300 (8.5%) were called active. Shown is part of a subset that was picked to be rich in actives.
Labels: class 1 = active, class 0 = inactive

CC(=O)O.N=C(N)NN=Cc1c(Cl)cccc1Cl ... class 0
Cc1ccc(S(=O)(=O)N(C)C[C@@H]2Oc3ccc(NS(=O)(=O)c4ccccc4)cc3CC(=O)N([C@H](C)CO)C[C@H]2C)cc1 ... class 0
C[C@H](CO)N1C[C@H](C)[C@@H](CN(C)C(=O)Nc2cccc3ccccc23)Oc2c(NS(=O)(=O)c3cccs3)cccc2C1=O ... class 0
C[C@@H]1CCCCO[C@@H](CN(C)C(=O)c2ccccc2)[C@H](C)CN([C@H](C)CO)C(=O)c2cc(NS(=O)(=O)c3ccccc3)ccc2O1 ... class 0
COCC(=O)N1C[C@@H](C)[C@H](OC)CN(C)C(=O)c2cc(NC(=O)c3ccc(F)cc3)ccc2OC[C@H]1C ... class 0
C[C@@H]1CCCCO[C@@H](CN(C)S(=O)(=O)c2ccc(Cl)cc2)[C@H](C)CN([C@H](C)CO)C(=O)c2cc(NS(=O)(=O)c3ccc(Cl)cc3)ccc2O1 ... class 1
C[C@H](CO)N1C[C@H](C)[C@@H](CN(C)S(=O)(=O)c2ccc(Cl)cc2)Oc2ccc(NC(=O)CCCN(C)C)cc2CC1=O ... class 0
Cc1ccc(S(=O)(=O)Nc2cccc3c2O[C@@H](CN(C)C(=O)Nc2cccc4ccccc24)[C@H](C)CN([C@@H](C)CO)C3=O)cc1 ... class 0
C[C@@H]1CN([C@@H](C)CO)C(=O)c2cc(NS(=O)(=O)c3ccc(Cl)cc3)ccc2O[C@@H](C)CCCCO[C@H]1CN(C)S(=O)(=O)c1ccc(Cl)cc1 ... class 0
C[C@@H]1CN([C@H](C)CO)C(=O)c2cc(NS(=O)(=O)c3ccc(Cl)cc3)ccc2O[C@@H](C)CCCCO[C@H]1CN(C)S(=O)(=O)c1ccc(Cl)cc1 ... class 0
CN(C)CC(=O)N1CC2(C1)[C@H](c1ccccc1)[C@H](CO)N2S(C)(=O)=O ... class 0
CCCC(=O)Nc1ccc2c(c1)OC[C@@H](C)N(Cc1ccc(-c3ccccn3)cc1)C[C@@H](C)[C@H](OC)CN(C)C2=O ... class 0
COc1ccc(S(=O)(=O)Nc2ccc3c(c2)C(=O)N([C@@H](C)CO)C[C@@H](C)[C@H](CN(C)S(=O)(=O)c2ccccc2)O3)cc1 ... class 0
COc1ccc(S(=O)(=O)Nc2cccc3c2O[C@@H](CN(C)C(=O)Nc2c(C)noc2C)[C@H](C)CN([C@@H](C)CO)C3=O)cc1 ... class 0

* * *

Tested on: HepG2
Test: cytotoxicity call (relative viability < 0.9)
Conditions: 10 µM
About 3,300 (8.5%) of roughly 39,000 compounds were called active. The list comes from a sample in which actives are over-represented; it also holds close analogues and randomly drawn compounds.
READOUT TYPE: cytotoxicity call

COc1ccc(CN(C)C[C@@H]2OCCCC[C@H](C)Oc3ccc(NC(=O)Nc4ccc(F)cc4)cc3C(=O)N([C@H](C)CO)C[C@H]2C)cc1 ... inactive
COc1ccc(CN(C)C[C@@H]2OCCCC[C@@H](C)Oc3ccc(NC(=O)Nc4ccc(F)cc4)cc3C(=O)N([C@@H](C)CO)C[C@@H]2C)cc1 ... inactive
COc1ccc(CN(C)C[C@@H]2OCCCC[C@H](C)Oc3ccc(NC(=O)Nc4ccc(F)cc4)cc3C(=O)N([C@H](C)CO)C[C@@H]2C)cc1 ... active
COc1ccc(CN(C)C[C@H]2OCCCC[C@@H](C)Oc3ccc(NC(=O)Nc4ccc(F)cc4)cc3C(=O)N([C@H](C)CO)C[C@@H]2C)cc1 ... inactive
COc1ccc(CN(C)C[C@@H]2OCCCC[C@H](C)Oc3ccc(NC(=O)Nc4ccc(F)cc4)cc3C(=O)N([C@@H](C)CO)C[C@@H]2C)cc1 ... active
COc1ccc(CN(C)C[C@@H]2OCCCC[C@@H](C)Oc3ccc(NC(=O)Nc4ccc(F)cc4)cc3C(=O)N([C@@H](C)CO)C[C@H]2C)cc1 ... active

* * *

System: HepG2
Assay: cytotoxicity call (relative viability < 0.9)
Conditions: 10 µM
The campaign covered roughly 39,000 compounds. About 3,300 (8.5%) were called active. Many of the other results were omitted from the sample, so actives are more common in it than they were.
READOUT TYPE: cytotoxicity call

C[C@H](CO)N1C[C@H](C)[C@@H](CN(C)CC2CCCCC2)OCCCC[C@H](C)Oc2ccc(NC(=O)C3CCCCC3)cc2C1=O ... inactive
C[C@H](CO)N1C[C@H](C)[C@H](CN(C)CC2CCCCC2)OCCCC[C@H](C)Oc2ccc(NC(=O)C3CCCCC3)cc2C1=O ... inactive
C[C@@H]1CN([C@@H](C)CO)C(=O)c2cc(NC(=O)C3CCCCC3)ccc2O[C@@H](C)CCCCO[C@H]1CN(C)CC1CCCCC1 ... active
C[C@@H]1CCCCO[C@@H](CN(C)CC2CCCCC2)[C@@H](C)CN([C@@H](C)CO)C(=O)c2cc(NC(=O)C3CCCCC3)ccc2O1 ... active

* * *

System: HepG2
Assay: cytotoxicity call (relative viability < 0.9)
Details: 10 µM
About 3,300 (8.5%) of roughly 39,000 compounds were called active. The full list was thinned out, with actives kept by preference.
Labels: TRUE for active, FALSE for inactive

C[C@@H]1CN([C@H](C)CO)C(=O)c2cc(NC(=O)C3CCCCC3)ccc2O[C@@H](C)CCCCO[C@@H]1CN(C)CC1CCCCC1 ... TRUE
C[C@@H]1CN([C@H](C)CO)C(=O)Cc2cc(NC(=O)Nc3ccc(C(F)(F)F)cc3)ccc2O[C@@H]1CN(C)Cc1ccc(C(F)(F)F)cc1 ... TRUE
C[C@@H]1CN([C@H](C)CO)C(=O)Cc2cc(NC(=O)NC3CCCCC3)ccc2O[C@H]1CN(C)Cc1ccc(C(F)(F)F)cc1 ... FALSE
CN(C)C(=O)COC[C@]12COC[C@H]1CN(S(C)(=O)=O)C2 ... FALSE
C[C@H]1CCCCO[C@@H](CN(C)CC2CCCCC2)[C@@H](C)CN([C@@H](C)CO)C(=O)c2cc(NC(=O)C3CCCCC3)ccc2O1 ... FALSE
C[C@@H]1CN([C@@H](C)CO)C(=O)c2cc(NC(=O)C3CCCCC3)ccc2O[C@@H](C)CCCCO[C@@H]1CN(C)CC1CCCCC1 ... FALSE
CN1CCc2nc(C(=O)N[C@@H]3C[C@@H](C(=O)N(C)C)CC[C@@H]3NC(=O)C(=O)Nc3ccc(Cl)cn3)sc2C1 ... FALSE

* * *

Tested on: HepG2
Test: cytotoxicity call (relative viability < 0.9)
Settings: 10 µM
The whole screen tested about 39,000 compounds, of which about 3,300 (8.5%) were called active. This excerpt belongs to a sample that is enriched for actives.
Labels: active, inactive

C[C@@H]1CN([C@@H](C)CO)C(=O)Cc2cc(NC(=O)Nc3cccc4ccccc34)ccc2O[C@@H]1CN(C)C(=O)NC1CCCCC1 ... active
C[C@@H]1CN([C@H](C)CO)C(=O)Cc2cc(NC(=O)Nc3cccc4ccccc34)ccc2O[C@H]1CN(C)C(=O)NC1CCCCC1 ... inactive
C[C@H](CO)N1C[C@H](C)[C@@H](CN(C)S(=O)(=O)c2ccccc2)Oc2cc(C#Cc3ccncc3)ccc2S1(=O)=O ... active
C[C@@H]1CN([C@@H](C)CO)C(=O)c2cc(NC(=O)C3CC3)ccc2O[C@@H]1CN(C)S(=O)(=O)c1cn(C)cn1 ... inactive
O=C(Cc1ccc(-c2ccccc2)cc1)Nc1c(C(=O)Nc2ccc3c(c2)OCCO3)oc2ccccc12 ... inactive
CCC(=O)Nc1ccc2ccccc2c1 ... inactive
C[C@@H]1CCCCO[C@H](CN(C)C(=O)Nc2ccc(F)cc2)[C@H](C)CN([C@H](C)CO)C(=O)c2cc(NS(=O)(=O)c3ccccc3)ccc2O1 ... inactive
C[C@H](CO)N1C[C@H](C)[C@@H](CN(C)C(=O)NC2CCCCC2)Oc2ccc(NC(=O)Nc3cccc4ccccc34)cc2CC1=O ... inactive

* * *

System: HepG2
Assay: cytotoxicity call (relative viability < 0.9)
Conditions: 10 µM
About 3,300 (8.5%) of roughly 39,000 compounds were called active. Shown is part of a subset that was picked to be rich in actives.
READOUT TYPE: cytotoxicity call

Cc1noc(C)c1S(=O)(=O)Nc1ccc2c(c1)C(=O)N([C@H](C)CO)C[C@H](C)[C@H](CN(C)C(=O)Nc1cccc3ccccc13)OCCCC[C@@H](C)O2 ... inactive
O=C(CN1CCOCC1)NCC[C@@H]1CC[C@@H](NC(=O)Nc2ccccc2)[C@H](CO)O1 ... inactive
C[C@H](CO)N1C[C@H](C)[C@@H](CN(C)Cc2ccc(C(F)(F)F)cc2)Oc2ccc(NC(=O)Cc3cn(C)c4ccccc34)cc2C1=O ... inactive
C[C@@H]1CN([C@H](C)CO)C(=O)Cc2cc(NC(=O)CCC(F)(F)F)ccc2O[C@H]1CN(C)C(=O)Nc1ccc(C(F)(F)F)cc1 ... inactive
COc1ccc(S(=O)(=O)N2C[C@@H](O)COC[C@H]3O[C@@H](CC(=O)N[C@@H]4CCN(Cc5ccccc5)C4)CC[C@@H]32)cc1 ... inactive
C[C@@H]1CN([C@@H](C)CO)S(=O)(=O)c2ccc(-c3ccc(C(=O)N(C)C)cc3)cc2O[C@@H]1CN(C)C(=O)C1CCOCC1 ... inactive
C[C@H](CO)N1C[C@H](C)[C@H](CN(C)C(=O)Nc2ccc(C(F)(F)F)cc2)Oc2ccc(NC(=O)Cc3cn(C)c4ccccc34)cc2C1=O ... inactive
Cc1noc(C)c1S(=O)(=O)Nc1ccc2c(c1)C(=O)N([C@H](C)CO)C[C@@H](C)[C@@H](CN(C)C(=O)Nc1cccc3ccccc13)OCCCC[C@@H](C)O2 ... inactive
C[C@H](CO)N1C[C@H](C)[C@@H](CN(C)C(=O)Nc2ccc(C(F)(F)F)cc2)Oc2ccc(NC(=O)Cc3cn(C)c4ccccc34)cc2C1=O ... inactive
C[C@@H]1CCCCO[C@H](CN(C)Cc2ccccc2)[C@@H](C)CN([C@@H](C)CO)C(=O)c2cc(NC(=O)c3ccccc3)ccc2O1 ... inactive
Cc1noc(C)c1S(=O)(=O)Nc1ccc2c(c1)C(=O)N([C@@H](C)CO)C[C@@H](C)[C@H](CN(C)C(=O)Nc1cccc3ccccc13)OCCCC[C@H](C)O2 ... inactive
Cc1noc(C)c1S(=O)(=O)Nc1ccc2c(c1)C(=O)N([C@@H](C)CO)C[C@@H](C)[C@@H](CN(C)C(=O)Nc1cccc3ccccc13)OCCCC[C@@H](C)O2 ... active
C[C@@H]1CN([C@@H](C)CO)C(=O)c2cc(NC(=O)Cc3cn(C)c4ccccc34)ccc2O[C@@H]1CN(C)C(=O)Nc1cccc2ccccc12 ... active
